Field: kon. Provide a value for each of the binders that follow.
# tested.target: T1, full length human tau protein 2N4R (hT40) (human, UniProt P10636 1-758)
# T1 construct: recombinant; also called T441
# T1 sequence (P10636 other isoform, or with tags, fused parts or gaps limits assumed): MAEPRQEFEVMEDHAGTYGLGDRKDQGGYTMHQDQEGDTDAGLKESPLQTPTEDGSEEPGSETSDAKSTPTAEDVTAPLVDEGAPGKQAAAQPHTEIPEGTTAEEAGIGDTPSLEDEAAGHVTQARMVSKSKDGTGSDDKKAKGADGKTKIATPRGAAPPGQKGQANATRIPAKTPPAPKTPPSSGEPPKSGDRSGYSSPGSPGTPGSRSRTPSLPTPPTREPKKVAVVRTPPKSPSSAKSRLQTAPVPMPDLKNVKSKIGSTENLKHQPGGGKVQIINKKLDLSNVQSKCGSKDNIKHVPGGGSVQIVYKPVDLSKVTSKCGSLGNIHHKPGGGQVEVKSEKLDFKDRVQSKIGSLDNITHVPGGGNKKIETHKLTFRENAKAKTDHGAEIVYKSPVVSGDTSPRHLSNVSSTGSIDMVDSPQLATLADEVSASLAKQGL
# test.protocol: SPR, hT40 immobilised, mAb analyte
Unit M⁻¹ s⁻¹ implied. Number only.

Entry under review: 412E10 mAb (antibody, mouse IgG2a, V domains shown, sheep-mouse IgG2a chimeric mAb) VH: QVQLQESGPSLVKPSQTLSLTCTVSGFSVISDSVAWVRQAPGKVPEWLGASGSSGNKYYNPALKSRLSITRDTSKSQVSLSLSSVTTEDTAVYYCARGIIAGVDVWGRGLLVTVSS VL: QAVLTQPSSVSGSLGQRVSITCSGSSSNVGYGNYVGWYQQVPGSAPKLLIYGTAIRASGVPDRFSGSRSGDTATLTITSLQAEDEADYYCASYQSNYAFFGSGTRLTVLG . Reported kon?
1.66e+06

Entry under review: CE3 mAb (antibody, mouse IgG2a, V domains shown, sheep-mouse IgG2a chimeric mAb) VH: QVRLQESGPSLVKPSQTLSVTCTVSGFSLISNAVGWVRQAPGKVPESLAGCSSDGKCYYNSALKSRLDITRDTSKNQISLSLSSVTTDDAAVYYCTRGYYPVYGYDYLGTIDYWGPGLLVTVSS VL: QAVLTQPSSVSGSLGQRVSITCSGSSSNVGRNDVAWFQQLPGSGLRTIIYGTTSRPSGIPDRFSGSKSGVTATLTIDSLQAEDEADYFCASGDSSAINDIFGSGTRLTVLG . Reported kon?
103000

Entry under review: CA4 mAb (antibody, mouse IgG2a, V domains shown, sheep-mouse IgG2a chimeric mAb; also called CA4 antibody) VH: QVQLQESGPSLVKPSQTLSLTCTVSGFSLTSYSVYWVRQAPGQALEWISIMYASGRVDYNPALKSRLSITRDTSKSQFSLSLSSVTTEDTAVYYCTRGIENWGPGLLVTVSS VL: DIQVTQSPSSLSASLTERVSITCRTSQSVNNYLSWYQQKPGQAPKLLIYYATRLYTDVPSRFSGSGSGTDYTLTITSLEADDTATYYCLQYDSTPLAFGGGTNVEIKG . Reported kon?
1.02e+06
